Where do the numbers come from? From PubChem BioAssay AID2060329.

Test system: MCF7 multi-cell spheroids with HUVEC/MSC, viability
Experiment: Anticancer human tumor MCF7 cell line growth inhibition [IpAb];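 further: spheroids exposed to agents for seven days before readout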
Settings: second compound 0.316 µM; first compound 0.01 µM; stronger effect = lower value
Description: Combinatorial screen of targeted agents with ipatasertib and abemaciclib in multi-cell type tumor spheroids […] Compounds. […] If the clinical Cmax for an agent had not been determined, the highest concentration tested was 10 microM. NCI60 Cell Culture. […] The optimal seeding densities for each of the cell lines at each time point assessed were determined prior to performing the concentration response studies. […]
# reported viability, T/C; entries follow
Entry rule: numbers only, all in %.

{"columns": ["compound", "unit symbol", "measurement"],
 "data": [
  ["COc1c(OCCCN2CCOCC2)ccc2c3n(c(=NC(=O)c4cnc(N)nc4)nc12)CCN3 + CCN1CCN(Cc2ccc(Nc3ncc(F)c(-c4cc(F)c5nc(C)n(C(C)C)c5c4)n3)nc2)CC1", "%", 73.5],
  ["Cn1ncnc1[C@H]1c2n[nH]c(=O)c3cc(F)cc(c23)N[C@@H]1c1ccc(F)cc1 + CC(C)NCC(C(=O)N1CCN(c2ncnc3c2C(C)CC3O)CC1)c1ccc(Cl)cc1", "%", 72.5],
  ["Cn1ncnc1[C@H]1c2n[nH]c(=O)c3cc(F)cc(c23)N[C@@H]1c1ccc(F)cc1 + CCN1CCN(Cc2ccc(Nc3ncc(F)c(-c4cc(F)c5nc(C)n(C(C)C)c5c4)n3)nc2)CC1", "%", 97.4],
  ["COc1c(OCCCN2CCOCC2)ccc2c3n(c(=NC(=O)c4cnc(N)nc4)nc12)CCN3 + CC(C)NCC(C(=O)N1CCN(c2ncnc3c2C(C)CC3O)CC1)c1ccc(Cl)cc1", "%", 65.8],
  ["CC(C)n1nc(-c2ccc3oc(N)nc3c2)c2c(N)ncnc21 + CCN1CCN(Cc2ccc(Nc3ncc(F)c(-c4cc(F)c5nc(C)n(C(C)C)c5c4)n3)nc2)CC1", "%", 58.8]
]}

Please turn your attention to the following entry.
Query: Tell me reported viability, T/C for CC(C)n1nc(-c2ccc3oc(N)nc3c2)c2c(N)ncnc21 + CC(C)NCC(C(=O)N1CCN(c2ncnc3c2C(C)CC3O)CC1)c1ccc(Cl)cc1 , tested with MCF7 multi-cell spheroids with HUVEC/MSC, viability.
Result: 50.3
